# study.system: T1, PUF4 RNA-binding domain (Saccharomyces cerevisiae, UniProt P25339 537-888)
# T1 sequence: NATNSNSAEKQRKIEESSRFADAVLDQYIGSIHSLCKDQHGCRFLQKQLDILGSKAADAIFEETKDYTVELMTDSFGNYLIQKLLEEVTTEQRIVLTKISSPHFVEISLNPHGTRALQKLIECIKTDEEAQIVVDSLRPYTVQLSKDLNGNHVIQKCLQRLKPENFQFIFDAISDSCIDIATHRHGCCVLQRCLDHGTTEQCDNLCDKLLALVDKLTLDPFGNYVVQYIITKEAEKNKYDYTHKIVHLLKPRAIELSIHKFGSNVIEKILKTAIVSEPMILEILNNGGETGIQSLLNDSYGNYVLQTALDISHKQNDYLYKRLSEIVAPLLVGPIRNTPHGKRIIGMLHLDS
# assay.notes: Mg; RNA-MaP; 20 mM Na-HEPES pH 7.4, 30 mM KOAc, 0.75 mM MgCl2, 0.1% Tween-20, 5% glycerol, 0.1 mg/mL BSA, 2 mM DTT; 25 C; 0.0125-409.6 nM protein
# condition.context: tags: N-His6-TEV cleaved; C-SNAP kept, Cy3B-labelled; label: tethered on chip by stalled RNA polymerase
For each of the binders below, state its Kd.
Give just the numeric value; µM need not be written.

Req: Supply recorded Kd for UCUCUUUGUAUUUAUUAUCUCUU (ssRNA) [Ie_S1_P4E.1_K4.1_C4.1_H4.1_[+4TT]_A4.1_F4.1_T4.1] here.
Resp: 0.0162

Req: Tell me Kd reported for UCUCUUUGUACCAGUCUCUCUU (ssRNA) [Ic_S1_P5E.1_K5.1_C5.1_H5.1_A5.1_[T5C]_[T6C]_F5.1_[T8G]_[A10C]_T5.1]
Resp: 0.363
